test.name: qHTS assay to identify small molecule agonists of the estrogen related receptor (ERR) signaling pathway from Tox21 library (AID 1224849); further: on the % scale 0 is the no-effect control and ±100 the full control effect; nearly all actives have a fitted effect of over 15% in size
condition.summary: ERR reporter cell line, ONE-Glo luciferase, 18 h; at 92.4 µM (top of the series) unless noted
Activity calls are given as the source filed them. The call rests on the fitted dose curve.
property.measured: activity change, positive = activation

Which activity change, positive = activation is reported for this compound? `COc1ccc(C2C(=O)c3ccccc3C2=O)cc1`
13.1% [at 42.5 µM] (inactive)

Also, `COc1ccc(/C=C/C(=O)c2ccc(OC)cc2OC)cc1` please.
-32.9% [at 42.5 µM] (inactive)

Also, `COC(=O)c1sccc1S(N)(=O)=O` please.
0.3% (inactive)

Also, `COC(C)(C)OC` please.
2.58% (inactive)

Also, CN1CCCN(C(c2ccccc2)c2ccc(Cl)cc2)CC1 (stereo not drawn) please.
-29.3% [at 42.5 µM] (inactive)

Also, `CCN(CC)C(=O)N1CCN(C)CC1` please.
6.11% [at 42.5 µM] (inactive)

Also, COC1CCC=CO1 (stereo not drawn) please.
5.99% (inactive)

Also, `O=C(O)CN1C(=O)c2cccc3cccc(c23)C1=O` please.
3.18% [at 42.5 µM] (inactive)

Also, `CCC(CO)(CO)[N+](=O)[O-]` please.
1.64% (inactive)

Also, `CNCc1ccc(NC(=O)c2c[nH]c3c2C(=O)CCC3)cc1` please.
-17.3% (inactive)

Also, `CN(C)CC/C=C1\c2ccccc2Sc2ccc(Cl)cc21` please.
-17.7% [at 42.5 µM] (inactive)

Also, `CC(=O)OCC1=C(C(=O)O)N2C(=O)[C@@H](NC(=O)CSc3ccncc3)[C@H]2SC1` please.
0.532% [at 42.5 µM] (inactive)

Also, `CC(=O)NNC(C)=O` please.
2.66% (inactive)
